Biological target: human CSNK1D (Homo sapiens (Human), UniProt P48730)
Sequence (P48730 whole entry): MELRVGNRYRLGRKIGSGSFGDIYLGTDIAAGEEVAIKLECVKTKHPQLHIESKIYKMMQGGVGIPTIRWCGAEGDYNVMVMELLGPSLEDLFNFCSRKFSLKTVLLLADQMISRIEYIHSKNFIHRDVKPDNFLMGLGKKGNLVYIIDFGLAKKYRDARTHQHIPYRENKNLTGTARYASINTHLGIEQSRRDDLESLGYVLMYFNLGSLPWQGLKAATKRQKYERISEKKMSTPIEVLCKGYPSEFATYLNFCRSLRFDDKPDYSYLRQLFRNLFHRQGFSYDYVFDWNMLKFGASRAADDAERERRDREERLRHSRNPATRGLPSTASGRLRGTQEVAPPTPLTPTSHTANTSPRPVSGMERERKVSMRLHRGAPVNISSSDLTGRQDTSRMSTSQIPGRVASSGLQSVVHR
// NB: equality with 10 nM counts as No; only IC50 strictly below is Yes

Before answering, review these 4 worked examples.
O=C1N[C@@H]2CCC[C@@H]2c2[nH]c(-c3ccnc(NC(=O)C(CC(F)F)c4ccc(F)cc4)c3)c(Nc3ccccc3)c21 (single isomer, unassigned; (+)) [Example 25] ... Yes
Cc1cn(C)c(=O)c2c(Nc3ccccc3)c(-c3ccnc(NC(=O)C(CC(F)F)c4ccc(F)cc4)c3)[nH]c12 (single isomer, unassigned) [Example 13] ... No
CN1CC(CC(F)(F)F)c2[nH]c(-c3ccnc(NC(=O)Cc4ccc(F)cc4)c3)c(Nc3ccccc3)c2C1=O (single isomer, unassigned) [Example 16] ... Yes
CN1CC(CC(F)(F)F)c2[nH]c(-c3ccnc(NC(=O)C(CC(F)F)c4ccc(F)cc4)c3)c(Nc3cscn3)c2C1=O (racemic) [Example 52] ... No

Lookup: Lab note: confirm whether the reported IC50 for this compound is below 10 nM, equality not counting. compound: O=C1N[C@@H]2CCC[C@@H]2c2[nH]c(-c3ccnc(NC(=O)C(CC(F)F)c4ccc(F)cc4)c3)c(Nc3ccccc3)c21 (single isomer, unassigned; (-)) [Example 23]
Found: No

Lookup: Consider CC1CN(C)C(=O)c2c1[nH]c(-c1ccnc(NC(=O)C(C)c3ccc(F)cc3)c1)c2Nc1ccccc1 (racemic) [Example 9] . Does its IC50 lie strictly below 10 nM?
Found: No

Lookup: Does CC1CN(C)C(=O)c2c1[nH]c(-c1ccnc(NC(=O)Cc3ccc(F)cc3)c1)c2Nc1ccccc1 (single isomer, unassigned; (+)) [Example 8] have IC50 strictly under 10 nM?
Found: No

Lookup: Report whether reported IC50 is lower than 10 nM (strictly) for CN1CC(CC(F)F)c2[nH]c(-c3ccnc(NC(=O)Cc4ccc(F)cc4)c3)c(Nc3ccccc3)c2C1=O (single isomer, unassigned) [Example 43]
Found: Yes

Lookup: Answer whether the compound Cn1cc(CC(F)(F)F)c2[nH]c(-c3ccnc(NC(=O)C(CC(F)F)c4ccc(F)cc4)c3)c(Nc3ccccc3)c2c1=O (single isomer, unassigned) [Example 36] has IC50 strictly less than 10 nM
Found: Yes

Lookup: Does this compound meet the criterion IC50 < 10 nM? Cc1cc2[nH]c(-c3ccnc(NC(=O)C(CC(F)F)c4ccc(F)cc4)c3)c(Nc3ccccc3F)c2c(=O)n1C (racemic) [Example 31]
Found: No

Lookup: is_below(IC50, 10 nM) for CN1CC(CC2CC2)c2[nH]c(-c3ccnc(NC(=O)Cc4ccc(F)cc4)c3)c(Nc3ccccc3)c2C1=O (racemic) [Example 18] ?
Found: No

Lookup: Hello, is IC50 of the following compound strictly smaller than 10 nM? O=C1N[C@@H]2CCC[C@@H]2c2[nH]c(-c3ccnc(NC(=O)C(CC(F)F)c4ccc(F)cc4)c3)c(Nc3ccccc3)c21 (single isomer, unassigned; (+)) [Example 22]
Found: Yes

----------
Target: UniProt:P48730
Below, each entry is listed alongside its reported pIC50.
// pIC50 is dimensionless: -log10 of concentration (M)

Cc1cn(C)c(=O)c2c(Nc3ccccc3)c(-c3ccnc(NC(=O)C(C)c4ccc(F)cc4)c3)[nH]c12 (single isomer, unassigned) [Example 41] ... 7.06
CN1CC(CC(F)(F)F)c2[nH]c(-c3ccnc(NC(=O)Cc4ccc(F)cc4)c3)c(Nc3ccccc3)c2C1=O (single isomer, unassigned) [Example 15] ... 7.70
CCC1CNC(=O)c2c1[nH]c(-c1ccnc(NC(=O)Cc3ccc(F)cc3)c1)c2Nc1ccccc1 (racemic) [Example 1] ... 8.26

Below: the item to evaluate.
Record for CN1CC(CC2CC2)c2[nH]c(-c3ccnc(NC(=O)Cc4ccc(F)cc4)c3)c(Nc3cscn3)c2C1=O (single isomer, unassigned) [Example 50] under target or system UniProt:P48730: pIC50 reported as 8.00

----------
Observed pIC50 values for human CSNK1A1 (Homo sapiens (Human)) are listed in what follows.
Note on pIC50: it is the negative log10 of concentration, concentration in mol/L.

O=C1N[C@@H]2CCC[C@@H]2c2[nH]c(-c3ccnc(NC(=O)C(CC(F)F)c4ccc(F)cc4)c3)c(Nc3ccccc3)c21 (single isomer, unassigned; (-)) [Example 24] ... 7.52
Cc1cn(C)c(=O)c2c(Nc3ccccc3)c(-c3ccnc(NC(=O)C(CC(F)F)c4ccc(F)cc4)c3)[nH]c12 (single isomer, unassigned) [Example 12] ... 6.74
CCC1CNC(=O)c2c1[nH]c(-c1ccnc(NC(=O)Cc3ccc(F)cc3)c1)c2Nc1ccccc1 (single isomer, unassigned) [Example 2] ... 8.48
CN1CC(CC(F)(F)F)c2[nH]c(-c3ccnc(NC(=O)C(CC(F)F)c4ccc(F)cc4)c3)c(Nc3cscn3)c2C1=O (single isomer, unassigned) [Example 54] ... 8.52

Turning to the following compound.
Result for Cc1cn(C)c(=O)c2c(Nc3ccccc3)c(-c3ccnc(NC(=O)C(C)c4ccc(F)cc4)c3)[nH]c12 (single isomer, unassigned) [Example 41] , tested on human CSNK1A1 (Homo sapiens (Human)), pIC50: 7.00

----------
Here's what we have: pIC50 numbers for human CSNK1D (Homo sapiens (Human), UniProt P48730).
# pIC50 is unitless: minus log10 of the molar concentration; print number only

Use the examples below as a reference point.
Cn1ccc2[nH]c(-c3ccnc(NC(=O)C(CC(F)F)c4ccc(F)cc4)c3)c(Nc3ccccc3)c2c1=O (single isomer, unassigned) [Example 30] ... 8.15
CN1CC(CC(F)(F)F)c2[nH]c(-c3ccnc(NC(=O)C(CC(F)F)c4ccc(F)cc4)c3)c(Nc3cscn3)c2C1=O (single isomer, unassigned) [Example 56] ... 7.89

Here's the next entry for you.
Input Cn1ccc2[nH]c(-c3ccnc(NC(=O)C(CC(F)F)c4ccc(F)cc4)c3)c(Nc3ccccc3)c2c1=O (single isomer, unassigned) [Example 29] . Output pIC50: 7.28

----------
Here's what we have: IC50 numbers for human CSNK1A1 (Homo sapiens (Human), UniProt P48729).
Numeric only. Scale: nM

Cc1cn(C)c(=O)c2c(Nc3ccccc3)c(-c3ccnc(NC(=O)C(CC(F)F)c4ccc(F)cc4)c3)[nH]c12 (single isomer, unassigned) [Example 13] ... 19

Item CN1CC(CC(F)F)c2[nH]c(-c3ccnc(NC(=O)Cc4ccc(F)cc4)c3)c(Nc3ccccc3)c2C1=O (single isomer, unassigned) [Example 43] ; assay system human CSNK1A1 (Homo sapiens (Human), UniProt P48729); IC50 reported as 2.8

Observed IC50 on human CSNK1A1 (Homo sapiens (Human), UniProt P48729), entry CN1CC(CC2CC2)c2[nH]c(-c3ccnc(NC(=O)Cc4ccc(F)cc4)c3)c(Nc3cscn3)c2C1=O (single isomer, unassigned) [Example 51] , equals 20

----------
Target: human CSNK1A1 (Homo sapiens (Human))
pIC50: −log10 of the molar value.
Parameter threshold = 8. Response is t when pIC50 meets or exceeds it, else f.

CN1CC(CC(F)(F)F)c2[nH]c(-c3ccnc(NC(=O)Cc4ccc(F)cc4)c3)c(Nc3cscn3)c2C1=O (single isomer, unassigned) [Example 47] ... t
CN1CC(CC(F)(F)F)c2[nH]c(-c3ccnc(NC(=O)C(CC(F)F)c4ccc(F)cc4)c3)c(Nc3cscn3)c2C1=O (single isomer, unassigned) [Example 53] ... f
CN1CC(CC(F)F)c2[nH]c(-c3ccnc(NC(=O)Cc4ccc(F)cc4)c3)c(Nc3ccccc3)c2C1=O (single isomer, unassigned) [Example 44] ... t
CN1CC(CC2CC2)c2[nH]c(-c3ccnc(NC(=O)Cc4ccc(F)cc4)c3)c(Nc3cscn3)c2C1=O (single isomer, unassigned) [Example 50] ... t
Cn1ccc2[nH]c(-c3ccnc(NC(=O)C(CC(F)F)c4ccc(F)cc4)c3)c(Nc3ccccc3)c2c1=O (single isomer, unassigned) [Example 29] ... f

Lookup: Given the entry Cn1cc(CC(F)(F)F)c2[nH]c(-c3ccnc(NC(=O)Cc4ccc(F)cc4)c3)c(Nc3ccccc3)c2c1=O , answer whether its pIC50 meets or surpasses 8.
Found: t

Lookup: Quick check: does O=C1N[C@@H]2CCC[C@@H]2c2[nH]c(-c3ccnc(NC(=O)C(CC(F)F)c4ccc(F)cc4)c3)c(Nc3ccccc3)c21 (single isomer, unassigned; (+)) [Example 25] have pIC50 greater than or equal to 8?
Found: t

----------
A collection of compounds and their measured IC50
Target: human CSNK1A1 (Homo sapiens (Human), UniProt P48729)
Sequence (P48729 whole entry): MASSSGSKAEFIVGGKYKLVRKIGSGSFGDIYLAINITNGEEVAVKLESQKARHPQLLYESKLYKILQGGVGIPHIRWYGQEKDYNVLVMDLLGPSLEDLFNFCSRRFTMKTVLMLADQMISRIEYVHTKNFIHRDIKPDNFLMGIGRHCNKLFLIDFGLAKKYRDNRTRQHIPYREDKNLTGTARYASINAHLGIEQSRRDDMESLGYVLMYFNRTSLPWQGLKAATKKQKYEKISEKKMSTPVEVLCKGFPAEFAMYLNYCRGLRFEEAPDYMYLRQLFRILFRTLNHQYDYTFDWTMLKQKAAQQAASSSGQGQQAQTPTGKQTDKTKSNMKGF
The reply must contain the numeric value and, after it, the unit.

Please review the following examples before continuing.
Cn1cc(CC(F)(F)F)c2[nH]c(-c3ccnc(NC(=O)C(CC(F)F)c4ccc(F)cc4)c3)c(Nc3ccccc3)c2c1=O (single isomer, unassigned) [Example 37] ... 12 nM
CN1CC(CC(F)(F)F)c2[nH]c(-c3ccnc(NC(=O)Cc4ccc(F)cc4)c3)c(Nc3cscn3)c2C1=O (single isomer, unassigned) [Example 48] ... 7.5 nM

In the following, a different compound is considered.
Field IC50 (entry CCC1CNC(=O)c2c1[nH]c(-c1ccnc(NC(=O)C(CC(F)F)c3ccc(F)cc3)c1)c2Nc1ccccc1 (stereo not drawn) ) reads 16 nM
